# maps each entry to its IC50
test system: NOMO-1; experiment: cells; assay type: functional, cell-based; settings: Homo sapiens;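 also: growth inhibition of human NOMO-1 cells measured by a cell viability assay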
Description: SANGER: Inhibition of human NOMO-1 cell growth in a cell viability assay.
measured attribute: IC50

smi: CNC(=O)c1cc(Oc2ccc(NC(=O)Nc3ccc(Cl)c(C(F)(F)F)c3)cc2)ccn1
measured attribute: IC50
endpoint value: > 4 µM
//
smi: CN(C)C/C=C/C(=O)Nc1cc2c(Nc3ccc(F)c(Cl)c3)ncnc2cc1O[C@H]1CCOC1
measured attribute: IC50
endpoint value: > 0.5 µM
//
smi: CCC(=O)N1CCN(c2ccc(-n3c(=O)ccc4cnc5ccc(-c6cnc7ccccc7c6)cc5c43)cc2C(F)(F)F)CC1
measured attribute: IC50
endpoint value: 0.4 µM
//
smi: CC(=O)O[C@@H]1[C@@H](OC(C)=O)[C@@H](O)[C@H](Oc2c(-c3ccc(O)cc3)oc3cc(O)cc(O)c3c2=O)O[C@H]1C
measured attribute: IC50
endpoint value: > 10 µM
//
smi: CO[C@H]1C[C@@H]2CC[C@@H](C)[C@@](O)(O2)C(=O)C(=O)N2CCCC[C@H]2C(=O)O[C@H]([C@H](C)C[C@@H]2CC[C@@H](O)[C@H](OC)C2)CC(=O)[C@H](C)/C=C(\C)[C@@H](O)[C@@H](OC)C(=O)[C@H](C)C[C@H](C)/C=C/C=C/C=C/1C
measured attribute: IC50
endpoint value: > 0.1 µM

---

system: EW-1; experiment: cells; assay type: functional, cell-based, Homo sapiens; conditions: ew-1;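 also: growth inhibition of the human EW-1 cell line, read out by a cell viability assay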
Description: SANGER: Inhibition of human EW-1 cell growth in a cell viability assay.
measured attribute: IC50

smi: Cc1cc([C@@H](C)Nc2ccccc2C(=O)O)c2nc(N3CCOCC3)cc(=O)n2c1
measured on: EW-1
endpoint value: > 5.12 µM

---

tested on: KOSC-2; assay: cells; type: functional, cell-based, Homo sapiens; conditions: Homo sapiens, KOSC-2
Description: SANGER: Inhibition of human KOSC-2 cell growth in a cell viability assay.

compound: O=C(c1cc(Cc2n[nH]c(=O)c3ccccc23)ccc1F)N1CCN(C(=O)C2CC2)CC1 [OLAPARIB]
measured on: KOSC-2
IC50: > 5000 nM

compound: Cn1cc(C2=C(c3ccc(Cl)cc3Cl)C(=O)NC2=O)c2ccccc21 [SB-216763]
measured on: KOSC-2
IC50: > 10000 nM

compound: COc1cc([C@@H]2c3cc4c(cc3[C@@H](O[C@@H]3O[C@@H]5CO[C@@H](C)O[C@H]5[C@H](O)[C@H]3O)[C@H]3COC(=O)[C@H]23)OCO4)cc(OC)c1O [ETOPOSIDE]
measured on: KOSC-2
IC50: > 16000 nM

compound: COc1cc(F)c(F)c(Nc2ccc(I)cc2F)c1NS(=O)(=O)C1(CC(O)CO)CC1 (configuration not stated)
measured on: KOSC-2
IC50: 1680 nM

compound: CN(Cc1cnc2nc(N)nc(N)c2n1)c1ccc(C(=O)N[C@@H](CCC(=O)O)C(=O)O)cc1 [METHOTREXATE]
measured on: KOSC-2
IC50: > 200 nM

compound: CCC1=C[C@@H]2CN(C1)Cc1c([nH]c3ccccc13)[C@@](C(=O)OC)(c1cc3c(cc1OC)N(C)[C@H]1[C@@](O)(C(=O)OC)[C@H](OC(C)=O)[C@]4(CC)C=CCN5CC[C@]31[C@@H]54)C2 [VINORELBINE]
measured on: KOSC-2
IC50: > 64 nM

compound: Cc1cnc(-c2cnc(NCCNc3ccc(C#N)cn3)nc2-c2ccc(Cl)cc2Cl)[nH]1 [LADUVIGLUSIB]
measured on: KOSC-2
IC50: > 2560 nM
